assay: Renal clearance per kg of total body weight in normal weight human at 236 mg infused over 30 mins; format: ADME, organism-based, Kidney; details: in vivo, iv, read-out: CL_renal (converted)

{"given.smiles": "CCCCCCCCCC(=O)N[C@@H](Cc1c[nH]c2ccccc12)C(=O)N[C@H](CC(N)=O)C(=O)N[C@@H](CC(=O)O)C(=O)N[C@@H]1C(=O)NCC(=O)N[C@@H](CCCN)C(=O)N[C@@H](CC(=O)O)C(=O)N[C@H](C)C(=O)N[C@@H](CC(=O)O)C(=O)NCC(=O)N[C@H](CO)C(=O)N[C@@H]([C@H](C)CC(=O)O)C(=O)N[C@@H](CC(=O)c2ccccc2N)C(=O)O[C@@H]1C", "CL renal at 0.5 h": "0.158 mL/min"}

###

experiment: Renal clearance per kg of fat-free weight in normal weight human at 236 mg infused over 30 mins; type: ADME, organism-based, Kidney; conditions: in vivo, iv, read-out: CL_renal (converted)
endpoint.name: CL renal at 0.5 h (mL/min)

{"given.smiles": "CCCCCCCCCC(=O)N[C@@H](Cc1c[nH]c2ccccc12)C(=O)N[C@H](CC(N)=O)C(=O)N[C@@H](CC(=O)O)C(=O)N[C@@H]1C(=O)NCC(=O)N[C@@H](CCCN)C(=O)N[C@@H](CC(=O)O)C(=O)N[C@H](C)C(=O)N[C@@H](CC(=O)O)C(=O)NCC(=O)N[C@H](CO)C(=O)N[C@@H]([C@H](C)CC(=O)O)C(=O)N[C@@H](CC(=O)c2ccccc2N)C(=O)O[C@@H]1C", "recorded.number": 0.217}

###

assay: AUC (0 to infinity) in normal weight human at 236 mg infused over 30 mins; type: ADME, organism-based; parameters: dose 236 mg, time infinity; conditions: plasma, iv

{"given.smiles": "CCCCCCCCCC(=O)N[C@@H](Cc1c[nH]c2ccccc12)C(=O)N[C@H](CC(N)=O)C(=O)N[C@@H](CC(=O)O)C(=O)N[C@@H]1C(=O)NCC(=O)N[C@@H](CCCN)C(=O)N[C@@H](CC(=O)O)C(=O)N[C@H](C)C(=O)N[C@@H](CC(=O)O)C(=O)NCC(=O)N[C@H](CO)C(=O)N[C@@H]([C@H](C)CC(=O)O)C(=O)N[C@@H](CC(=O)c2ccccc2N)C(=O)O[C@@H]1C", "unit.abbreviation": "µg·h/mL", "AUC(0-inf)": 346}

###

assay: Protein binding in morbidly obese human serum at 461 mg infused over 30 mins; assay type: ADME, cell-free; conditions: iv, read-out: PB (converted)

{"given.smiles": "CCCCCCCCCC(=O)N[C@@H](Cc1c[nH]c2ccccc12)C(=O)N[C@H](CC(N)=O)C(=O)N[C@@H](CC(=O)O)C(=O)N[C@@H]1C(=O)NCC(=O)N[C@@H](CCCN)C(=O)N[C@@H](CC(=O)O)C(=O)N[C@H](C)C(=O)N[C@@H](CC(=O)O)C(=O)NCC(=O)N[C@H](CO)C(=O)N[C@@H]([C@H](C)CC(=O)O)C(=O)N[C@@H](CC(=O)c2ccccc2N)C(=O)O[C@@H]1C", "fraction unbound at 0.5 h": 0.112}

###

assay: AUC (0 to infinity) in morbidly obese human at 461 mg infused over 30 mins; assay type: ADME, organism-based; parameters: dose 461 mg, time infinity; details: plasma, iv

{"given.smiles": "CCCCCCCCCC(=O)N[C@@H](Cc1c[nH]c2ccccc12)C(=O)N[C@H](CC(N)=O)C(=O)N[C@@H](CC(=O)O)C(=O)N[C@@H]1C(=O)NCC(=O)N[C@@H](CCCN)C(=O)N[C@@H](CC(=O)O)C(=O)N[C@H](C)C(=O)N[C@@H](CC(=O)O)C(=O)NCC(=O)N[C@H](CO)C(=O)N[C@@H]([C@H](C)CC(=O)O)C(=O)N[C@@H](CC(=O)c2ccccc2N)C(=O)O[C@@H]1C", "AUC(0-inf), µg·h/mL": 581}
